The values you see were collected from ChEMBL document CHEMBL5247642.

- ASSAY INFO: MRT in CD-1 mouse at 1 mg/kg, iv measured after 24 hrs by LC-MS/MS analysis
- Format: ADME, organism-based
- CONDITION SUMMARY: in vivo
ENDPOINT LABEL: MRT (min)
Provide only the numeric value, understood in min.

Input: Value lookup for MRT; key = C=CC(=O)N1CCCC(n2nc3c(=O)[nH]nc(N)c3c2-c2oc3ccc(C)cc3c2C)C1 (stereo unspecified)
Output: 15.1

###

- SYSTEM TESTED: Fibroblast growth factor receptor 1 (Homo sapiens)
- Sequence (P11362 whole entry): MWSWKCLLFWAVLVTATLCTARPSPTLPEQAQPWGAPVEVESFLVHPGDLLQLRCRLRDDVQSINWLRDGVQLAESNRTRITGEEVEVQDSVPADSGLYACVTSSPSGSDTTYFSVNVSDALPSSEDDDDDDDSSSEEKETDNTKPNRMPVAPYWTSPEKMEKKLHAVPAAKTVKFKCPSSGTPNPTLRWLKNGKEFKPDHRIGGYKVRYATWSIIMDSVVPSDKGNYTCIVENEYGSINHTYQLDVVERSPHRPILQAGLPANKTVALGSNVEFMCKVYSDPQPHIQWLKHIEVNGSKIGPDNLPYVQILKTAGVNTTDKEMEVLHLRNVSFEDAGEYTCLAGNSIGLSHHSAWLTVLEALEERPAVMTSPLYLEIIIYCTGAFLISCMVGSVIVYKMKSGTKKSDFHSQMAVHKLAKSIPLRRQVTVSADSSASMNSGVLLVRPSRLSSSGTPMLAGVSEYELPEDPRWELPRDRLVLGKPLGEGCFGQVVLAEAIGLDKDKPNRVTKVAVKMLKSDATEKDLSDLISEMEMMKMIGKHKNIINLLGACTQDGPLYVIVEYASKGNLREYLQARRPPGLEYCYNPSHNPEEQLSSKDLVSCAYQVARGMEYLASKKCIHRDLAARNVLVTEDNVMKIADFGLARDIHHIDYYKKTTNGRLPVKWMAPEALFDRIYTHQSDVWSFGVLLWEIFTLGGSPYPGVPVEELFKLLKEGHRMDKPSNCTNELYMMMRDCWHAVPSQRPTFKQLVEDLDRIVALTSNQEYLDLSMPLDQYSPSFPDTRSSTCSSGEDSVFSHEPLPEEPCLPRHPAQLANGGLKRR
For each entry below, report its pIC50 value.
pIC50 (log units): -log10 of the concentration in mol/L.

Input: Value lookup for pIC50; key = C=CC(=O)N1CCC(n2nc3c(=O)[nH]nc(N)c3c2-c2oc3cc(C)ccc3c2C)CC1
Output: 8.64

Input: Value lookup for pIC50; key = C=CC(=O)N1CCC(n2nc3c(=O)[nH]nc(N)c3c2-c2oc3cc(OC)cc(OC)c3c2C)CC1
Output: 7.07

Input: Value lookup for pIC50; key = C/C=C/C(=O)N1CCCC(n2nc3c(=O)[nH]nc(N)c3c2-c2oc3ccc(C)cc3c2C)C1 (racemic)
Output: 7.17
